Numbers sourced from patent US7312330B2.

- assayComment: Pharmacokinetic profile after intravenous and oral administration
- Assay type: in vivo
- conditionInfo: male, Sprague-Dawley, plasma; rat; IV 1 mg/kg, oral 5 mg/kg
- Method: The pharmacokinetic profile of Compound 1 was evaluated following intravenous and oral administration in rats. Sprague-Dawley male rats obtained from Charles River, San Diego, Calif. were acclimated for 24 hours. Compounds of this invention were formulated at a concentration of 0.5 mg/mL for IV administration at a 1 mg/kg dose and 1 mg/mL for oral administration at a 5 mg/kg dose. All animals were weighed before dosing. The body weight was used to calculate the actual dose for each animal. […]
measurementKind: Cmax (ng/mL)
Numbers only here, please. The scale is ng/mL.

Recorded Cmax, per entry:
N#Cc1nc2c(c(Nc3ccc(C(F)(F)F)cc3)n1)CCN(c1ncccc1Cl)C2 [Example 37] ... 49.4
CS(=O)(=O)c1cccnc1N1CCc2c(ncnc2Nc2ccc(C(F)(F)F)cc2)C1 [Example 9] ... 156

Form field: reported Cmax of FC(F)(F)c1ccc(Nc2ncnc3c2CCN(c2ncccc2Cl)C3)cc1 [Example 1]
1380
